# Kd listing for each entry below
Biological target: T1, IL13RA2 Protein, Human, Recombinant (ECD)-His tag (human, UniProt Q14627 27-343)
T1 construct: extracellular domain; also called human recombinant protein extracellular domain; human IL13Ra2-His6
T1 sequence: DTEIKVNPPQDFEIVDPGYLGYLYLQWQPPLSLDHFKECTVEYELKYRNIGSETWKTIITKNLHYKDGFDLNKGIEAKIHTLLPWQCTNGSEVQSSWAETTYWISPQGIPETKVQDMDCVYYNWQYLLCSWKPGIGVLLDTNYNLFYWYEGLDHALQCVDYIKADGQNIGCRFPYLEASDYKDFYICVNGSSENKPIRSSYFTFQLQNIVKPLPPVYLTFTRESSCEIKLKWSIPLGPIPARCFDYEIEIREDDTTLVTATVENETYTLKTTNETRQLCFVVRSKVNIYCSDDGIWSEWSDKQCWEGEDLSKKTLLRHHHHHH
Assay: BLI; biotinylated VHH captured on streptavidin biosensor, antigen 1 uM in solution
Description: Binding Affinity for the VH domains with IL13Rα2 are calculated as follows: Biotinylated VHHs were individually captured on streptavidin biosensors. VHH-captured biosensors were dipped in wells containing antigen and the binding response was measured. Biosensors were later dipped in buffer wells to observe the dissociation of bound antigen from captured VHH. (Schematic representation of the process depicted in FIG. 26, upper left corner). […]

Binder	Unit symbol	Kd
VH53f3 (VHH, biotinylated (site not stated), Expressed in E. coli and 6xHIS purified; also called VH53f3 Biotin; Anti-IL13Rα2 VH53) VHH: QVQLQESGGGLVQPGGSLRLSCEVSGSISSINRMAWYRQVPGKEREMVAQITYGDTIKYYGSAKGRFTISKDSAKNAVYLQMNSLKPEDTAVYRCNIVGVLTTGHYENSFWGQGTQVTVSS	nM	0.89
IL13Ra2_2TIG4_f3 (VHH, biotinylated (site not stated), Expressed in E. coli and 6xHIS purified; also called IL13Ra2_2TIG4_f3-Biotin) VHH: QVQLQESGGGLVQPGGSLRLSCAASGRTYGMGWFRQAPGKEREFVAVGVWSSGNTYYADFARGRFTISRDNAKNTVYLQMDSLKPEDTAVYYCAAPRYSSYTTYHAAYDYWGPGTQVTVSS	nM	5.02
VH36f1 (VHH, biotinylated (site not stated), Expressed in E. coli and 6xHIS purified; also called VH36f1 Biotin; Anti-IL13Rα2 VH36) VHH: QVQLQESGGGSVQPGGSLRLSCAASGINISSDVMEWFRQGPGEQRELVAHITTNSRTEYADFVKGRFTISRANAKNTLYLQMNGLKPEDTALYYCALRRGGRILWGQGTQVTVSS	nM	1.3
VH43f2 (VHH, biotinylated (site not stated), Expressed in E. coli and 6xHIS purified; also called VH43f2-Biotin; Anti-IL13Rα2 VH43) VHH: QVQLQESGGGLVQPGGSLRLSCTASGSIRGIGYMAWGRQGPGKPRELIATINSAGDTNYAESVKGRFTVSRDNAENTLYLQMNNLKSEDTAVYYCNARPGLQSYWGQGTQVTVSS	nM	4.65
